Molar Absorption Coefficient ϵ overview
Assay: UV-Vis absorption spectra in solvents
Type: physicochemical
Conditions: EtOH

COMPOUND: O=P1(c2ccccc2)C(c2ccc(N(c3ccccc3)c3ccccc3)cc2)=Cc2ccccc21 (stereo not shown)
REPORTED_METRIC: Molar Absorption Coefficient ϵ
VALUE_OBSERVED: 1.78 10^4M^−1 cm^−1
--
COMPOUND: O=P1(c2ccccc2)C(c2cc3c4c(c2)CCCN4CCC3)=Cc2cc3ccccc3cc21 (stereo not shown)
REPORTED_METRIC: Molar Absorption Coefficient ϵ
VALUE_OBSERVED: 2.33 10^4M^−1 cm^−1
--
COMPOUND: O=P1(c2ccccc2)C(c2ccc(N(c3ccccc3)c3ccccc3)cc2)=Cc2cc3ccccc3cc21 (stereo not shown)
REPORTED_METRIC: Molar Absorption Coefficient ϵ
VALUE_OBSERVED: 2.67 10^4M^−1 cm^−1

Query compound follows.
# return recorded Molar Absorption Coefficient ϵ for input O=P1(c2ccccc2)C2=C(c3ccccc31)C(c1ccccc1)(c1ccccc1)c1cc(N(c3ccccc3)c3ccccc3)ccc12 (stereo not shown)
1.60 10^4M^−1 cm^−1

Each recorded value in this set is attributed to patent US9951094B2.
